Test system: melanoma B 16
Measurement notes: Test for melanoma B 16
Format: in vivo, BDF1 hybrid mice
Assay setup: 1.25 mg/kg IP, D1-D9; survival time
Quantity kind: T/C % (%)
Write the number in % without appending the unit.

The cases that follow already have their T/C % on record.
>>> observed_result("Cc1cnc(NCCCN(C)C)c2c1[nH]c1ccc(O)cc12 [Derivative No. 9]")
139
>>> observed_result("Cc1cnc(NCCCN(C)C)c2c3cc(O)ccc3n(C)c12")
123
>>> observed_result("Cc1cnc(NCCCN(C)C)c2c1[nH]c1ccc(O)cc12 [Derivative No. 10]")
116

What value of T/C % has been recorded for this entry: "CCN(CC)CCCNc1ncc(C)c2c1c1cc(O)ccc1n2C"
133
